The following binders are shown together with reported Maximum MFI values.
system_name: T1, human B7-H7 on the cell surface (human, UniProt Q9UM44 23-414)
T1 construct: whole, on cells; also called hB7-H7; hu B7-H7
T1 sequence (looked up): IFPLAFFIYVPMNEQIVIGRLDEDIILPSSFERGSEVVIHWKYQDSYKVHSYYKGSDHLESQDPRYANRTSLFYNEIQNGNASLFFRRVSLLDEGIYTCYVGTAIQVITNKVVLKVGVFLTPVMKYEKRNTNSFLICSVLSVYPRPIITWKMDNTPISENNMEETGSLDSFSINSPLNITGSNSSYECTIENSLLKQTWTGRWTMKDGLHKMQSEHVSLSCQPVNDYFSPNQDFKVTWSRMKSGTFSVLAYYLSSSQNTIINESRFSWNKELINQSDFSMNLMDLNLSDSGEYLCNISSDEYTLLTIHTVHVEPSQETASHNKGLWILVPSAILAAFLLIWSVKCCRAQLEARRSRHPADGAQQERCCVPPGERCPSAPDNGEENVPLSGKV
test_method_notes: flow cytometry, HCC827 cells
Express your answer in MFI, writing the number without its unit.

Please review the entries below; each comes with its answer.
{"binder": "PR003265 (antibody, human IgG1, kappa, V domains shown, Human IgG1; also called 78G8B3) VH: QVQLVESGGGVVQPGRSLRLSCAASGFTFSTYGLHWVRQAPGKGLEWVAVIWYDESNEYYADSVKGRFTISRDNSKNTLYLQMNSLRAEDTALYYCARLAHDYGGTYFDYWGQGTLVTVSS VL: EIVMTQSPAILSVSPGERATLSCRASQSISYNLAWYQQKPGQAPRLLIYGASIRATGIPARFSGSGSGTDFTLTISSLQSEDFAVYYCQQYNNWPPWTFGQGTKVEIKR", "Maximum MFI, MFI": 51800}
{"binder": "PR003260 (antibody, human IgG1, kappa, V domains shown, Human IgG1; also called 70F3B1) VH: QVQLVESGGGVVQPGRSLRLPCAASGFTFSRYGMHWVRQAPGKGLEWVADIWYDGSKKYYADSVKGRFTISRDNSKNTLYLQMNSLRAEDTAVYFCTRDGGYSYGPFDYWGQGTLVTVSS VL: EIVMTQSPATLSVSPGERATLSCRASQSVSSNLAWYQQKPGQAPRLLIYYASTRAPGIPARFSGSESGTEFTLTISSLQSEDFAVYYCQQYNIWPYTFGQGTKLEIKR", "Maximum MFI, MFI": 53300}
{"binder": "PR003263 (antibody, human IgG1, kappa, V domains shown, Human IgG1; also called 77E6C4) VH: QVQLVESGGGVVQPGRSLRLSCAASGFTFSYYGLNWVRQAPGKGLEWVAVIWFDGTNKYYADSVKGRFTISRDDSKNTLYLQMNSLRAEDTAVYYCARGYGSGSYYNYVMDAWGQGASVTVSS VL: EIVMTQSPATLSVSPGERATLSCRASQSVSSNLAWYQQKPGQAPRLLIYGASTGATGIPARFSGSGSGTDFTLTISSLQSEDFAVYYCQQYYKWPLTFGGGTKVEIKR", "Maximum MFI, MFI": 53200}
{"binder": "PR003252 (antibody, human IgG1, kappa, V domains shown, Human IgG1; also called 53C12D4) VH: QVQLVESGGGVVQPGRSLRLSCAASGFTFSNYAMHWVRQVPGKGLEWVALIWYDGSEKYYADSVKGRFTISRDDSKNTLFLQMSSLRAEDTAVYSCVREYSSGWGYFDYWGQGTQVTVSS VL: DIQMTQSPSTLSASVGDRVTITCRASQSISSWLAWYQQKPGKAPKLLIYKASSLKSGVPSRFSGSGSGTEFTLTISSLQPDDFATYYCLQYNSYYTFGQGTKLEIKR", "Maximum MFI, MFI": 69400}

Attention now turns to another entry.
# input binder: PR003262 (antibody, human IgG1, kappa, V domains shown, Human IgG1; also called 77D5A4) VH: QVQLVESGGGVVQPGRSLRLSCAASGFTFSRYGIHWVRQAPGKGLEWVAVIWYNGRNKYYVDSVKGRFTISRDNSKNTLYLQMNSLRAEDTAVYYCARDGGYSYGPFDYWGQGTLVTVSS VL: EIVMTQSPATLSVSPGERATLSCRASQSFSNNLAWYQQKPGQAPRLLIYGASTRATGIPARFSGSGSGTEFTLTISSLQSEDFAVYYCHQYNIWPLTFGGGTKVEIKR ; wanted: its Maximum MFI
54000
